Hello, the source for this data is patent US9115122B2, in case you need it.

Recorded Cell Viability (% of Vehicle) Jurkat for the following compounds
# System: Jurkat T-cell leukemia cells
# testSummary: Cell proliferation WST-1 assay, single dose (Example 4)
# Format: cell-based
# statedConditions: 100 μM, 48 hours

Worked examples follow.
NCCN1C(=O)S/C(=C\c2ccc(OCc3ccccc3)cc2)C1=O [Compound 30h]: 87 ± 5 % of Vehicle
CCOc1ccc(/C=C/C(=O)NCCN)cc1: 89 ± 7 % of Vehicle
NCCN1C(=O)S/C(=C\c2ccccc2)C1=O [Compound 30a]: 88 ± 4 % of Vehicle
CCOc1ccc(/C=C2\SC(=O)N(CCNCc3ccc(C#N)cc3)C2=O)cc1 [Compound 23e]: 98 ± 5 % of Vehicle
CCCc1ccc(/C=C2\SC(=O)N(CCN)C2=O)cc1 [Compound 30e]: 16 ± 8 % of Vehicle

Param readout = Cell Viability (% of Vehicle) Jurkat; param system = Jurkat T-cell leukemia cells; param query = CCOc1ccc(/C=C2\SC(=O)N(Cc3ccc(C(=O)O)cc3)C2=O)cc1 [Compound 28q] ; response: value
85 ± 3 % of Vehicle

Param readout = Cell Viability (% of Vehicle) Jurkat; param system = Jurkat T-cell leukemia cells; param query = NCCN1C(=O)S/C(=C\c2ccccc2OCc2ccccc2)C1=O [Compound 30k] ; response: value
1.5 ± 0.1 % of Vehicle

Param readout = Cell Viability (% of Vehicle) Jurkat; param system = Jurkat T-cell leukemia cells; param query = CCOc1ccc(/C=C2\SC(=O)N(Cc3ccccn3)C2=O)cc1 [Compound 28j] ; response: value
101 ± 7 % of Vehicle

Param readout = Cell Viability (% of Vehicle) Jurkat; param system = Jurkat T-cell leukemia cells; param query = CCOc1ccc(/C=C2\SC(=O)N(CCNCC(C)C)C2=O)cc1 [Compound 23c] ; response: value
2.5 ± 0.1 % of Vehicle

###

# Test system: RPMI-7951 melanoma cells
# testSummary: Cell proliferation WST-1 assay, single dose (Example 4)
# Format: cell-based
# statedConditions: 100 μM, 48 hours
parameterMeasured: Cell Viability (% of Vehicle) RPMI-7951

Worked examples follow.
CCOc1ccc(/C=C2\SC(=O)N(CCNC(=O)C(F)(F)F)C2=O)cc1 [Compound 25b]: 127 ± 3 % of Vehicle
CC(C)COc1ccccc1/C=C1\SC(=O)N(CCN)C1=O [Compound 30j]: 1.0 ± 0.04 % of Vehicle
CCOc1ccc(/C=C2\SC(=O)N(C(CN)CN)C2=O)cc1 [Compound 22e]: 25 ± 3 % of Vehicle

Look at this molecule and give its reported Cell Viability (% of Vehicle) RPMI-7951. CCOc1ccc(/C=C2\SC(=O)N(CCNC(=O)c3ccc(C#N)cc3)C2=O)cc1 [Compound 25d]
122 ± 10 % of Vehicle

Look at this molecule and give its reported Cell Viability (% of Vehicle) RPMI-7951. CCOc1ccc(/C=C2\CCN(CCN)C2=O)cc1
96 ± 3 % of Vehicle

Look at this molecule and give its reported Cell Viability (% of Vehicle) RPMI-7951. CCOc1ccc(/C=C2\SC(=O)N(CCNS(=O)(=O)c3ccc(C#N)cc3)C2=O)cc1 [Compound 27b]
99 ± 4 % of Vehicle

###

# Tested on: HeLa cervical carcinoma cells
# testSummary: Cell proliferation WST-1 assay, single dose (Example 4)
# Type: cell-based
# statedConditions: 100 μM, 48 hours
parameterMeasured: Cell Viability (% of Vehicle) HeLa

Look at this compound and give its reported Cell Viability (% of Vehicle) HeLa. CCOc1ccc(/C=C2\SC(=O)N(CCNC(=O)OCc3ccccc3)C2=O)cc1 [Compound 26d]
98 ± 6 % of Vehicle

###

Recorded Cell Viability (% of Vehicle) HL-60 for the following molecules
# Tested on: HL-60 leukemic cells
# testSummary: Cell proliferation WST-1 assay, single dose (Example 4)
# Assay type: cell-based
# statedConditions: 100 μM, 48 hours

CCOc1ccc(/C=C2\SC(=O)N(Cc3cnc[nH]3)C2=O)cc1 [Compound 28a]: 123 ± 20 % of Vehicle

Param readout = Cell Viability (% of Vehicle) HL-60; param system = HL-60 leukemic cells; param query = CCOc1ccc(/C=C2\SC(=O)N(Cc3ccc(N)cc3)C2=O)cc1 [Compound 28o] ; response: value
86 ± 21 % of Vehicle

Param readout = Cell Viability (% of Vehicle) HL-60; param system = HL-60 leukemic cells; param query = [H]/N=C(/N)NCCN1C(=O)SC(=Cc2ccc(OCC)cc2)C1=O [Compound 28c] ; response: value
20 ± 6 % of Vehicle

Param readout = Cell Viability (% of Vehicle) HL-60; param system = HL-60 leukemic cells; param query = CCNCCN1C(=O)S/C(=C\c2ccc(OCC)cc2)C1=O [Compound 23b] ; response: value
14 ± 4 % of Vehicle

Param readout = Cell Viability (% of Vehicle) HL-60; param system = HL-60 leukemic cells; param query = CCOc1ccc(/C=C2\SC(=O)N(CCNC(=O)OCc3ccccc3)C2=O)cc1 [Compound 26d] ; response: value
85 ± 27 % of Vehicle

###

# Test system: RPMI-7951 melanoma cells
# testSummary: Cell proliferation WST-1 assay, single dose (Example 4)
# Format: cell-based
# statedConditions: 100 μM, 48 hours
# Description: In addition, compounds were tested in RPMI-7951 cells, which also contain mutated BRaf and are resistant to BRaf inhibitors due to the overexpression of MAP3K8 (the gene encoding COT/Tp12) that provides an alternative mechanism to indirectly or directly activate ERK proteins. […] Cell proliferation was evaluated by water soluble tetrazolium-1 (WST-1) assay as previously described. […] After incubation, WST-1 reagent was added and absorbance was read at 450 nm with background subtraction taken at 650 nm. […]
Recorded Cell Viability (% of Vehicle) RPMI-7951 for the following compounds

Worked examples follow.
CCOc1ccc(/C=C2\SC(=O)N(Cc3ccc(C(=O)OC(C)(C)C)cc3)C2=O)cc1 [Compound 28p]: 122 ± 1 % of Vehicle
CCOc1ccc(/C=C2\SC(=O)N(Cc3cccc(C(=O)O)c3)C2=O)cc1 [Compound 28r]: 83 ± 6 % of Vehicle
CCOc1ccc(/C=C2\SC(=O)N(CCN(Cc3ccc(C#N)cc3)Cc3cccc(C#N)c3)C2=O)cc1 [Compound 24c]: 108 ± 9 % of Vehicle

Look at this compound and give its reported Cell Viability (% of Vehicle) RPMI-7951. CCOc1ccc(/C=C2\SC(=S)N(CCN)C2=O)cc1
3.3 ± 2 % of Vehicle

Look at this compound and give its reported Cell Viability (% of Vehicle) RPMI-7951. CCOc1ccc(/C=C2\SC(=O)N(Cc3ccccc3)C2=O)cc1 [Compound 28i]
114 ± 20 % of Vehicle

Look at this compound and give its reported Cell Viability (% of Vehicle) RPMI-7951. CCOc1ccc(/C=C2\SC(=O)N(Cc3cccc(N)n3)C2=O)cc1 [Compound 28b]
101 ± 4 % of Vehicle

Look at this compound and give its reported Cell Viability (% of Vehicle) RPMI-7951. CCOc1ccc(/C=C2\SC(=O)N(Cc3ccc([N+](=O)[O-])cc3)C2=O)cc1 [Compound 28n]
119 ± 13 % of Vehicle

Look at this compound and give its reported Cell Viability (% of Vehicle) RPMI-7951. CCOc1ccc(/C=C2\SC(=O)N(CCNC(C)=O)C2=O)cc1 [Compound 25a]
124 ± 5 % of Vehicle

###

Recorded Cell Viability (% of Vehicle) HeLa for the following compounds
# System: HeLa cervical carcinoma cells
# testSummary: Cell proliferation WST-1 assay, single dose (Example 4)
# Format: cell-based
# statedConditions: 100 μM, 48 hours

CCOc1ccc(/C=C2\SC(=O)N(Cc3ccc(C(=O)O)cc3)C2=O)cc1 [Compound 28q]: 64 ± 2 % of Vehicle

Turning now to a further compound:
Look at this compound and give its reported Cell Viability (% of Vehicle) HeLa. CCOc1ccc(/C=C2\SC(=O)N(Cc3ccccc3)C2=O)cc1 [Compound 28i]
95 ± 4 % of Vehicle

###

# System: SK-MEL-28 melanoma cells
# testSummary: Cell proliferation WST-1 assay, single dose (Example 4)
# Type: cell-based
# statedConditions: 100 μM, 48 hours
# Description: In addition, compounds were tested in RPMI-7951 cells, which also contain mutated BRaf and are resistant to BRaf inhibitors due to the overexpression of MAP3K8 (the gene encoding COT/Tp12) that provides an alternative mechanism to indirectly or directly activate ERK proteins. […] Cell proliferation was evaluated by water soluble tetrazolium-1 (WST-1) assay as previously described. […] After incubation, WST-1 reagent was added and absorbance was read at 450 nm with background subtraction taken at 650 nm. […]
Recorded Cell Viability (% of Vehicle) SK-MEL-28 for the following compounds

CCOc1ccc(/C=C2\SC(=O)N(CC(C)N)C2=O)cc1 (stereo not drawn) [Compound 22b]: 32 ± 4 % of Vehicle

Look at this compound and give its reported Cell Viability (% of Vehicle) SK-MEL-28. CCOc1ccc(/C=C2\CCN(CCN)C2=O)cc1
79 ± 6 % of Vehicle

Look at this compound and give its reported Cell Viability (% of Vehicle) SK-MEL-28. CCOc1ccc(/C=C2\SC(=O)N(C[C@H](N)C(=O)OC)C2=O)cc1 [Compound 22d]
33 ± 9 % of Vehicle
